Kindly supply the reported Total Binding at 4° C. values for the records listed here.
- Test System: human MSR1 endogenously expressed on PMA-differentiated THP-1 cells (human) (UniProt P21757)
- Sequence (P21757 whole entry): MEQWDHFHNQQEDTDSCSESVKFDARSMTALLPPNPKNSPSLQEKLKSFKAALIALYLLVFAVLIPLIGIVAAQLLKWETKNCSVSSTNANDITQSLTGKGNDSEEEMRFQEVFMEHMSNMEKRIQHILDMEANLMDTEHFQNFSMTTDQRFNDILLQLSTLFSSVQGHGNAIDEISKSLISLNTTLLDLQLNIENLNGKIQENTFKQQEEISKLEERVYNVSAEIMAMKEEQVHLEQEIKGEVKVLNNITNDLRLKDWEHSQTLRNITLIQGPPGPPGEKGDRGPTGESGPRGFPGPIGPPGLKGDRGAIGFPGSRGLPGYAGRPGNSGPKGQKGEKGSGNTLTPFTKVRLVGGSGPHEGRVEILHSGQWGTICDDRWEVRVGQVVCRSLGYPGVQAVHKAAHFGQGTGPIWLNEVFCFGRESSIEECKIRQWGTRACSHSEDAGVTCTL
- Protocol: imaging of PMA-differentiated THP-1 cells, 10 ug/mL antibody, Alexa 488 secondary
Give bare numbers, in RFU.

binder="H1H21227N-N297Q (antibody, human IgG1, V domains shown) VH: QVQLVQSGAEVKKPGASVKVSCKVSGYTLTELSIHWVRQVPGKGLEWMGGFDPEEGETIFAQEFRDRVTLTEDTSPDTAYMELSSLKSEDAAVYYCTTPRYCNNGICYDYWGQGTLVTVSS VL: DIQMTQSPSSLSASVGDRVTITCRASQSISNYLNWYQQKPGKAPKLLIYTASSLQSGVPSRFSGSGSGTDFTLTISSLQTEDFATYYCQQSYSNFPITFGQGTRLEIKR" units_of_measure=RFU reported_value=1.8e+06
binder="H1H27734P-N297Q (antibody, human IgG1, V domains shown) VH: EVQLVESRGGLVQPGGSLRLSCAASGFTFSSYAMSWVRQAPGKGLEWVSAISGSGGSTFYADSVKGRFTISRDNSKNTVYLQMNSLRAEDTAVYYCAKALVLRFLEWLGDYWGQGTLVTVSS VL: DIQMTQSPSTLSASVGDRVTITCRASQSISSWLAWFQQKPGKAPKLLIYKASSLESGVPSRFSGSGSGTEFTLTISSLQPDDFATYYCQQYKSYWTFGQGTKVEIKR" units_of_measure=RFU reported_value=483000

Proceeding to the next binder to report its Total Binding at 4° C..
Please report the recorded Total Binding at 4° C. for H1H27729P-N297Q (antibody, human IgG1, V domains shown) VH: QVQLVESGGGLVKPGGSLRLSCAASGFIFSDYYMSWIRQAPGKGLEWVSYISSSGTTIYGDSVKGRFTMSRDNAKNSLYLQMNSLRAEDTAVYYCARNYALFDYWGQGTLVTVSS VL: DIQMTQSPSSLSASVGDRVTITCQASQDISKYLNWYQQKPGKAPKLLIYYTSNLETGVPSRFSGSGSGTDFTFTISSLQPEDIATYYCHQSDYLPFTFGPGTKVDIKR .
1.93e+06

Just for reference, patent US20200368361A1 is where these values come from.
